System: UACC-257 melanoma
test_description: NCI tumour cell line growth inhibition, 48 h
outcome_measure: GI50

compound "Cc1ccc2c(-c3ccnc(Nc4cccc(C(F)(F)F)c4)n3)c(-c3ccccc3)nn2n1" , GI50 observed: 8.31 µM

compound CCOC(=O)C(Cc1ccccc1)n1c(O)c(/C=N/c2ncc(Cc3ccc(Cl)cc3Cl)s2)sc1=S (stereo not drawn) , GI50 observed: 2.72 µM

compound "O=C1NC(=NCCc2ccccc2F)S/C1=C\c1ccc2ncccc2c1" , GI50 observed: 9.35 µM

----------
Tested on: SW-620 colon
test_description: NCI tumour cell line growth inhibition, 48 h
Kindly supply the reported TGI values for the records listed here.

compound "Cc1cc2c(C(C)C)c(O)c(O)c(/C=N/O)c2c(O)c1-c1c(C)cc2c(C(C)C)c(O)c(O)c(/C=N/O)c2c1O" , TGI observed: 12.3 µM

compound "CC(C)(C)c1cc(Cc2ccc(S(C)(=O)=O)cc2)c(O)c(C(C)(C)C)c1" , TGI observed: 31.2 µM

compound CC1CCC2C(C)C(OC(=O)CCC(=O)O)OC3OC4(C)CCC1C32OO4 (configuration not stated) , TGI observed: > 100 µM

compound "CN(C)/C=N/c1cc(=O)n(C)c(=O)n1C" , TGI observed: > 100 µM

compound C=C1[C@@H](OC(C)=O)/C=C/C2C3C(=O)[C@@](C)(OC(C)=O)[C@H]([C@H](OC(C)=O)[C@]4(O)[C@@H](C)C(=O)O[C@H]4[C@H]1Cl)[C@@]23C (some centres not stated) , TGI observed: > 100 µM

compound "c1ccc(C2(c3cc4ccccc4[nH]3)OCCO2)nc1" , TGI observed: > 100 µM

compound "CN(C)Cc1ccc(O)c(CN(C)C)n1" , TGI observed: > 100 µM

compound "S=c1[nH]nc(COc2ccc(Cl)cc2)n1-c1ccccc1" , TGI observed: > 100 µM

compound COc1cc2c(cc1OC)C1CN3CCCC3C(O)C1c1cc(OC)c(OC)cc1-2 (configuration not stated) , TGI observed: > 100 µM

compound NC(=S)N/N=C/C(O[C@@H](/C=N/NC(N)=S)CO)n1cnc2c(N)ncnc21 (some centres not stated) , TGI observed: > 53.7 µM

compound Cc1ccc(NC(=O)CC(=O)N2N=C(N(c3ccccc3)c3ccccc3)CC2c2ccccc2)cc1 (configuration not stated) , TGI observed: > 100 µM

compound "Cn1ccc(S(=O)(=O)N2CCC[C@H](Nc3nccc(-c4c(-c5cccc(O)c5)nc5occn45)n3)C2)n1" , TGI observed: > 64.2 µM

compound "COC(=O)c1cc(C#N)[nH]c1-c1ccc(Br)s1" , TGI observed: 29.9 µM

compound "O=C(CCl)N1CCN(c2ccccc2)CC1" , TGI observed: 54.3 µM

compound "O=C1NC(=Nc2ccccc2Cl)N/C1=C\c1c(Cl)cccc1Cl" , TGI observed: > 100 µM

compound "O=C(O[C@H](/C=C/c1ccccc1)P1(=O)N(Cc2ccccc2)[C@H]2CCCC[C@@H]2N1Cc1ccccc1)c1ccccc1" , TGI observed: > 100 µM

compound "CN1CCC(=C(c2ccc(Cl)cc2)c2ccccn2)CC1" , TGI observed: > 100 µM

compound "CCNCCS(=O)(=O)NC[C@@]1(c2ccccc2)SC(NC(=O)C(C)(C)C)=NN1C(=O)C(C)(C)C" , TGI observed: > 100 µM

compound O=C(NCCc1ccccn1)c1ccc2cc(C(=O)N3CC(CCl)c4ccc([N+](=O)[O-])cc43)[nH]c2c1 (configuration not stated) , TGI observed: > 100 µM

compound "Cn1cc(Nc2nccc(-c3ccc4c(c3)CN(C3COC3)CC[C@H]4NC(=O)c3cn(C(C)(C)C)nn3)n2)cn1" , TGI observed: > 100 µM

compound COC(=O)C1=C(C)N(NC(N)=O)C2(N)N(NC(N)=O)C(C)=C(C(=O)OC)C12C#N (configuration not stated) , TGI observed: > 100 µM

compound CCN(CC)CC(C(C)=O)C(c1ccccc1)c1c(O)c2ccccc2oc1=O (configuration not stated) , TGI observed: > 100 µM

compound "CCc1nc(N)nc(N)c1-c1ccc(N2CCNCC2)c([N+](=O)[O-])c1" , TGI observed: > 100 µM

compound "COC(=O)NCCc1[nH]nc2c1C(=O)C=C(Nc1ccccc1OC)C2=O" , TGI observed: 47.8 µM

compound "Cc1cc(N(CCC#N)CCC#N)ccc1/C(Sc1ccccc1)=C(\NC(=O)/C=C/c1ccccc1)C(=O)Sc1ccccc1" , TGI observed: 15.3 µM

compound "O=C(c1ccc(Cl)c(Cl)c1)N(C(=S)OC12CC3CC(CC(C3)C1)C2)c1ccccc1" , TGI observed: > 100 µM

compound "O=c1nc(N2CCCCC2)sc2[nH]c3ccccc3c12" , TGI observed: > 100 µM

compound "CSc1ccccc1NC1=NCCO1" , TGI observed: > 100 µM

compound C[C@H]1[C@H]2[C@H](C[C@@]3(C)C4=CC[C@H]5C(C)(C)[C@@H](OC6OCC(O)C(O)C6O)CC[C@@]56C[C@@]46CC[C@]23C)O[C@@]2(O)[C@@H]1OC(C)(C)[C@H]2O (some centres not stated) , TGI observed: 3.74 µM

compound "O=C(Nc1ccc(Nc2ccc(NC(=O)c3ccccc3)c3c2C(=O)c2ccccc2C3=O)c2c1C(=O)c1ccccc1C2=O)c1ccccc1" , TGI observed: > 100 µM

compound "N=C1C(c2nc3ccccc3c(=O)[nH]2)=C(O)CN1c1cccc(Cl)c1" , TGI observed: > 100 µM

compound "Cc1cc2c(cc1Cl)SC(NNC(=O)c1ccccc1)=NS2(=O)=O" , TGI observed: > 10 µM

compound "Cc1c(C(=O)/C=C/c2ccc([N+](=O)[O-])cc2)[n+](=O)c2ccccc2n1[O-]" , TGI observed: > 100 µM

compound "CC(=O)NNc1nc(C)c(C(=O)/C=C/c2ccc(N(C)C)cc2)s1" , TGI observed: > 100 µM

compound "COC(=O)CSc1cc(Cl)c(C)cc1S(=O)(=O)Nc1n[nH]c(N)n1" , TGI observed: > 10 µM

compound "COC1=CC(=O)C2=C(C1=O)[C@H]1CC[C@]3(C)C(=O)CC[C@H]3[C@@H]1CC2" , TGI observed: 67.7 µM

compound "COc1ccc(N=Nc2c(-c3ccccc3)nn(C(=O)CC(=O)Nc3ccc(OC)cc3)c2-c2ccccc2)cc1" , TGI observed: > 100 µM
